Listing of entries alongside the reported inhibition.
# Tested Target: Cytochrome P450 2C9 (Homo sapiens) (UniProt P11712)
# Sequence (P11712 whole entry, looked up): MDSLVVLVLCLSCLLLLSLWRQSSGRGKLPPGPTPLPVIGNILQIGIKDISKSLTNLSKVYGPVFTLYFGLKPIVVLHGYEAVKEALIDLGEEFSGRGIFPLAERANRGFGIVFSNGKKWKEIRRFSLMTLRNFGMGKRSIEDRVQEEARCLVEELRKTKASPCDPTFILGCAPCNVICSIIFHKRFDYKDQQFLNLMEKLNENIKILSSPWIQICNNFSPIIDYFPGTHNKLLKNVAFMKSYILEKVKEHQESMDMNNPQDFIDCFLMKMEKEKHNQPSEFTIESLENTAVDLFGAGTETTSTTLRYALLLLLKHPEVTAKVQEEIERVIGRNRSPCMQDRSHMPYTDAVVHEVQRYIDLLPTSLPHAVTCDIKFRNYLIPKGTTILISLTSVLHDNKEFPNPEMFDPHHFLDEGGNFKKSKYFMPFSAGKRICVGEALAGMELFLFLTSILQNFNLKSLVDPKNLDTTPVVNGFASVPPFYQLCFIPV
# Test Details: blockers of cytochrome P450 2C9 activity – biochemical, luminescence, ADME assay, primary screen (AID 777)
# Test Settings: CYP2C9 Supersomes, luciferin-H conversion, at 5 µM, stronger effect = higher value
Screen size: about 96,000 compounds; about 19,000 (20%) were called active. These entries were drawn from the full list.
Output spec: scalar in %, unitless text.

COc1ccccc1-n1cnc2cc(C(=O)NCC3CCCO3)ccc21 (centres undefined) ... -36.5
COc1ccc(-n2nnc3c(=O)n(CC(=O)OCc4ccccc4)cnc32)cc1 ... -16
O=C(Nc1ccccc1F)C1C2C=CC3(O2)C1C(=O)N(c1cccnc1)C3C(=O)NC1CCCCC1 (centres undefined) ... -11.1
CCCCCN1CC(O)=C(c2ccccc2)C1=N ... -11.3
COCc1cc(C)nc2sc3c(=O)n(-c4cccc5ccccc45)nnc3c12 ... 26.8

Return reported inhibition; argument: Cc1cc(C)c2[nH]c(=O)c(C(c3nnnn3Cc3ccc4c(c3)OCO4)N3CCCC3)cc2c1 (centres undefined)
86.7

Okay, and COc1cccc(N2C(=O)C3CCCN3C2c2ccc(F)cc2)c1 (centres undefined) ?
-9.4

Okay, and "CCCCCN1CC(O)=C(c2nc(-c3ccc(Cl)cc3)cs2)C1=N" ?
62.1

Okay, and "CCOC(=O)c1c(NC(=S)Nc2ccccc2)sc2c1CCN(C)C2" ?
24.5

Okay, and "COc1cc(CNCc2cccs2)cc(Br)c1OC" ?
8.7

Okay, and "CCOC(=O)N1CCN(C(=O)CNC(=O)Cc2ccc(Cl)cc2)CC1" ?
10.1

Okay, and "COC(=O)c1ccccc1NC(=O)Cn1nc(C(F)(F)F)c2c1CCC2" ?
17.4

Okay, and "CC(C)OCCCNC(=O)CNC(=O)c1cccs1" ?
10.8

Okay, and "COC(=O)c1ccccc1Sc1c(/C=N/OCc2ccc(Cl)cc2)c(C(F)(F)F)nn1C" ?
89.6

Okay, and "FC(F)(F)COc1nc(N2CCCCC2)nc(N2CCNCC2)n1" ?
-4.2

Okay, and "O=C(O)C1CCN(C(=O)OCc2ccccc2)CC1" ?
5.6

====

# Tested Target: Cytochrome P450 2C9 (Homo sapiens) (UniProt P11712)
# Test Details: blockers of cytochrome P450 2C9 activity – biochemical, luminescence, ADME assay, primary screen (AID 777)
# Test Settings: CYP2C9 Supersomes, luciferin-H conversion, at 5 µM, stronger effect = higher value
In all, about 96,000 compounds went through this assay and about 19,000 (20%) were called active. Not all results are given here.
Listing of entries alongside the reported inhibition.

Examples from the recorded data:
Cc1onc(-c2c(Cl)cccc2Cl)c1C(=O)c1c[nH]c(C(=O)NC2CC2)c1 ... 7.6% (inactive)
O=C(Nc1ccccc1)O/N=C1\CCCCC1c1ccc([N+](=O)[O-])cc1[N+](=O)[O-] (stereo not given) ... 63.3% (active)
OC(C#CCN1CCOCC1)(c1ccccc1)C1CCCCC1 (stereo not given) ... 30% (inactive)
CCn1cc(C(=O)N2CCN(C3CCCCC3)CC2)c2cc(OC)c(OC)cc2c1=O ... 19% (inactive)

Return reported inhibition; argument: "CSC1=N/C(=C\c2ccc3c(c2)OCO3)C(=O)S1"
1.7% (inactive)
